# Protocol: Pharmacokinetic study of DPTM in rats after i.v., i.m. and p.o. administration (HPLC-MS/MS, non-compartmental)
# Type: in vivo
# Conditions Used: Sprague-Dawley, rat, plasma, po, 75 mg/kg, p.o., range over 10, 25 and 75 mg/kg doses, read-out: area under the curve from 0 to 48 h (AUC0→t)
Readout Kind: AUC(0-t)

Qu. // AUC(0-t) lookup, key: C=CC1(C)CC(OC(=O)CSc2nc(N)cc(N)n2)C2(C)C(C)CCC3(CCC(=O)C32)C(C)C1O (stereo not shown)
Ans. 510 to 1500 ng·h/mL

###

# Protocol: Pharmacokinetic study of DPTM in rats after i.v., i.m. and p.o. administration (HPLC-MS/MS, non-compartmental)
# Format: in vivo
# Conditions Used: Sprague-Dawley, rat, plasma, po, 25 mg/kg, rat serum, p.o., 25 mg/kg; read-out: AUC0→t
Readout Kind: AUC(0-t) (ng·h/mL)
Unit ng·h/mL implied. Number only.

Qu. // AUC(0-t) lookup, key: C=CC1(C)CC(OC(=O)CSc2nc(N)cc(N)n2)C2(C)C(C)CCC3(CCC(=O)C32)C(C)C1O (stereo not shown)
Ans. 1300

###

# Protocol: Pharmacokinetic study of DPTM in rats after i.v., i.m. and p.o. administration (HPLC-MS/MS, non-compartmental)
# Assay type: in vivo
# Conditions Used: Sprague-Dawley, plasma, im; rat, i.m., 10 mg/kg; read-out: F, absolute bioavailability
Readout Kind: bioavailability (%)
Unit % implied. Number only.

Qu. // bioavailability lookup, key: C=CC1(C)CC(OC(=O)CSc2nc(N)cc(N)n2)C2(C)C(C)CCC3(CCC(=O)C32)C(C)C1O (stereo not shown)
Ans. 68.2

###

# Protocol: Pharmacokinetic study of DPTM in rats after i.v., i.m. and p.o. administration (HPLC-MS/MS, non-compartmental)
# Assay type: in vivo
# Conditions Used: Sprague-Dawley, plasma, iv; rat, i.v., 75 mg/kg; read-out: Vss
Readout Kind: Vd (L/kg)
Unit L/kg implied. Number only.

Qu. // Vd lookup, key: C=CC1(C)CC(OC(=O)CSc2nc(N)cc(N)n2)C2(C)C(C)CCC3(CCC(=O)C32)C(C)C1O (stereo not shown) [DPTM]
Ans. 0.03

###

# Protocol: Pharmacokinetic study of DPTM in rats after i.v., i.m. and p.o. administration (HPLC-MS/MS, non-compartmental)
# Assay type: in vivo
# Conditions Used: Sprague-Dawley, plasma, iv; rat, 10 mg/kg, median (min–max)
Readout Kind: Tmax (min)
Unit min implied. Number only.

Qu. // Tmax lookup, key: C=CC1(C)CC(OC(=O)CSc2nc(N)cc(N)n2)C2(C)C(C)CCC3(CCC(=O)C32)C(C)C1O (stereo not shown)
Ans. 4.8

###

# Protocol: Pharmacokinetic study of DPTM in rats after i.v., i.m. and p.o. administration (HPLC-MS/MS, non-compartmental)
# Format: in vivo
# Conditions Used: Sprague-Dawley, rat, plasma, iv, 75 mg/kg, rat serum, i.v., 75 mg/kg; read-out: AUC0→t
Readout Kind: AUC(0-t) (ng·h/mL)
Unit ng·h/mL implied. Number only.

Qu. // AUC(0-t) lookup, key: C=CC1(C)CC(OC(=O)CSc2nc(N)cc(N)n2)C2(C)C(C)CCC3(CCC(=O)C32)C(C)C1O (stereo not shown) [DPTM]
Ans. 36000

Source of measurements: paper PMC6413085
